molecular target: MAPK8 (human); test: KINOMEscan competition binding; details: compound 10.0 µM
Parameter kinase still bound, per cent of control: see the listing below.
# number only, unit % dropped from output

Please review the following examples before continuing.
[ask] # get_value(readout='kinase still bound, per cent of control', item= COc1ccc(-c2ccc3c(N4CCOCC4)nc(N4C[C@@H](C)O[C@@H](C)C4)nc3n2)cc1CO )
[reply] 87

[ask] # get_value(readout='kinase still bound, per cent of control', item= CCC(=O)N1CCN(c2ccc(-n3c(=O)ccc4cnc5ccc(-c6cnc7ccccc7c6)cc5c43)cc2C(F)(F)F)CC1 )
[reply] 22

Continuing:
[ask] # get_value(readout='kinase still bound, per cent of control', item= CC(C)n1nc(-c2cc3cc(O)ccc3[nH]2)c2c(N)ncnc21 )
[reply] 89

[ask] # get_value(readout='kinase still bound, per cent of control', item= COC(=O)Nc1ccc(-c2nc(N3CCOCC3)c3cnn(C4CCN(C(=O)OC)CC4)c3n2)cc1 )
[reply] 100

Provenance of the data: the kinase profiling compilation of Christmann-Franck et al. (2016)
